# System: CRL-7250
# ASSAY_METHOD_TEXT: Cytotoxic Profiling of Annotated Libraries Using Quantitative High-Throughput Screening (AID 1296008); also: % is scaled to controls: 0 for no effect and ±100 for the full control effect; nearly all actives have a fitted effect of over 60% in size
# CONDITION_NOTES: Five cell lines viability, CellTiter-Glo ATP luminescence, 48-72 h; active compounds read low
Inconclusive results are not listed.
ASSAY_READOUT: max response (%)
Give bare numbers, in %.

Below, 4 molecules whose answers are already recorded.
I'd like to know its max response. The molecule in question is CC(=O)O[C@H]1C[C@@](O)(C(C)C)C2[C@@H](OC(=O)c3ccc(O)cc3)C[C@@]3(C)O[C@H]3C[C@]21C (stereo not given in full)
-0.746

I'd like to know its max response. The molecule in question is O=C1Nc2ccccc2C(O)(c2ccccc2)C1O (stereo not given)
0.0908

I'd like to know its max response. The molecule in question is Cc1c2cc(c(C(=O)O)c1C)OC1OC(C(O)C(O)C1O)C(O)C(O)C1OC(O2)C(O)C(O)C1O (stereo not given)
-20.3

I'd like to know its max response. The molecule in question is CCOCCn1nc(CC)c2nc(N3CCC(C(=O)O)CC3)nc(Nc3cc(C)ccn3)c21
-0.41

Okay, next one:
I'd like to know its max response. The molecule in question is C/C1=C\[C@H]2OC(=O)[C@@H](C)[C@@H]2CC/C(C(=O)O)=C/CC1
-1.29
